- procedure.text: Pharmacokinetics studies in mice (plasma and brain concentration)
- Format: in vivo
- condition.parameters: 20 mg/kg IP, 2 hr
quantity.name: Tissue Concentration Plasma Mean (ng/mL)

[
  {
    "cpd.smiles": "Brc1ccc2[nH]c(Cn3cncc3-c3ccc[nH]3)cc2c1",
    "measurement.units": "ng/mL",
    "result": 562
  }
]

###

- procedure.text: Pharmacokinetics studies in mice (plasma and brain concentration)
- Format: in vivo
- condition.parameters: 20 mg/kg IP, 0.25 hr
quantity.name: Tissue Concentration Plasma Mean (ng/mL)

[
  {
    "compound": "Brc1ccc2[nH]c(Cn3cncc3-c3ccc[nH]3)cc2c1 [Compound G28]",
    "quantity.name": "Tissue Concentration Plasma Mean",
    "result": 1880
  }
]

###

- procedure.text: Pharmacokinetics studies in mice (plasma and brain concentration)
- Type: in vivo
- condition.parameters: mouse, 20 mg/kg IP, Brain

[
  {
    "cpd.smiles": "Brc1ccc2[nH]c(Cn3cncc3-c3ccc[nH]3)cc2c1",
    "AUC(0-inf)": "14200 ng·h/mL"
  }
]

###

- procedure.text: Pharmacokinetics studies in mice (plasma and brain concentration)
- Assay type: in vivo
- condition.parameters: mouse, 20 mg/kg IP, Plasma
quantity.name: Tmax (min)

[
  {
    "cpd.smiles": "Brc1ccc2[nH]c(Cn3cncc3-c3ccc[nH]3)cc2c1",
    "quantity.name": "Tmax",
    "measurement.units": "min",
    "result": 15
  }
]

###

- procedure.text: Pharmacokinetics studies in mice (plasma and brain concentration)
- Format: in vivo
- condition.parameters: mouse, plasma, po, 20 mg/kg, 20 mg/kg PO, 2 Hr, individual mouse M5, read-out: Plasma concentration M5

[
  {
    "cpd.smiles": "Fc1ccc2[nH]c(Cn3cncc3-c3ccc[nH]3)cc2c1",
    "concentration at 2 h (ng/mL)": 408
  }
]

###

- procedure.text: Pharmacokinetics studies in mice (plasma and brain concentration)
- Format: in vivo
- condition.parameters: mouse, 20 mg/kg IP, Plasma

[
  {
    "compound": "Brc1ccc2[nH]c(Cn3cncc3-c3ccc[nH]3)cc2c1 [Compound G28]",
    "AUC(0-t) (ng·h/mL)": 2910
  }
]

###

- procedure.text: Pharmacokinetics studies in mice (plasma and brain concentration)
- Assay type: in vivo
- condition.parameters: mouse, brain/plasma, po, 20 mg/kg, 20 mg/kg PO, 0.5 Hr, individual mouse M1, read-out: B/P Ratio M1

[
  {
    "cpd.smiles": "Fc1ccc2[nH]c(Cn3cncc3-c3ccc[nH]3)cc2c1",
    "Kp at 0.5 h": 0.9
  }
]

###

- procedure.text: Pharmacokinetics studies in mice (plasma and brain concentration)
- Format: in vivo
- condition.parameters: mouse, brain/plasma, po, 20 mg/kg, 20 mg/kg PO, 0.5 Hr, individual mouse M3, read-out: B/P Ratio M3

[
  {
    "compound": "Fc1ccc2[nH]c(Cn3cncc3-c3ccc[nH]3)cc2c1 [Compound G29]",
    "Kp at 0.5 h": 0.9
  }
]

###

- procedure.text: Pharmacokinetics studies in mice (plasma and brain concentration)
- Format: in vivo
- condition.parameters: mouse, brain, po, 20 mg/kg, 20 mg/kg PO, 0.5 Hr, individual mouse M2, read-out: Brain concentration M2
quantity.name: concentration at 0.5 h (ng/mL)

[
  {
    "cpd.smiles": "Fc1ccc2[nH]c(Cn3cncc3-c3ccc[nH]3)cc2c1",
    "measurement.units": "ng/mL",
    "result": 869
  }
]

###

- target.desc: human IDO1 (Homo sapiens (Human), UniProt P14902)
- Sequence (P14902 whole entry): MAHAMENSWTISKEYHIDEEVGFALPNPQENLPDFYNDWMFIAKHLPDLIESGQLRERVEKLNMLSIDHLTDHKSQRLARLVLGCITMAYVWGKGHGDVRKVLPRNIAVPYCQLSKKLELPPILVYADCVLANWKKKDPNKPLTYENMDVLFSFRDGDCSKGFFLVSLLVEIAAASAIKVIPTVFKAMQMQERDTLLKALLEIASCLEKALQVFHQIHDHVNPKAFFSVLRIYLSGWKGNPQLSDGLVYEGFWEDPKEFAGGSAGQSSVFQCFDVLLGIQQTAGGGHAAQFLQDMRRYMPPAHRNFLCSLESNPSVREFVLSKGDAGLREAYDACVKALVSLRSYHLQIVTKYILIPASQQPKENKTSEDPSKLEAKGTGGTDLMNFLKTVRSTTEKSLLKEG
- procedure.text: IDO1 enzymatic inhibition assay
- Type: biochemical
- condition.parameters: recombinant human IDO1
quantity.name: IC50 (nM)

[
  {
    "cpd.smiles": "Brc1ccc2[nH]c(Cn3cncc3-c3ccc[nH]3)cc2c1",
    "target.desc": "human IDO1 (Homo sapiens (Human), UniProt P14902)",
    "measurement.units": "nM",
    "result": 310
  }
]

###

- procedure.text: Pharmacokinetics studies in mice (plasma and brain concentration)
- Type: in vivo
- condition.parameters: mouse, brain, po, 20 mg/kg, 20 mg/kg PO, 2 Hr, individual mouse M5, read-out: Brain concentration M5
- Description: In order to assess the pharmacokinetics of the IDO1 inhibitors of the present application, two inhibitors were administered to mice at 20 mg/kg via PO (G29), or IP (G28). […] Blood samples were collected via cardiac puncture, the mice were perfused with phosphate buffered saline (PBS) and the brains were collected. The blood and brain samples were protein precipitated with ice-cold acetonitrile and the concentration of the test compound in the resulting supernatant was quantified using LC/MS/MS. […]

[
  {
    "cpd.smiles": "Fc1ccc2[nH]c(Cn3cncc3-c3ccc[nH]3)cc2c1",
    "concentration at 2 h": "2050 ng/mL"
  }
]

###

- procedure.text: Pharmacokinetics studies in mice (plasma and brain concentration)
- Format: in vivo
- condition.parameters: mouse, brain/plasma, po, 20 mg/kg, 20 mg/kg PO, 2 Hr, individual mouse M5, read-out: B/P Ratio M5
- Method: In order to assess the pharmacokinetics of the IDO1 inhibitors of the present application, two inhibitors were administered to mice at 20 mg/kg via PO (G29), or IP (G28). […] Blood samples were collected via cardiac puncture, the mice were perfused with phosphate buffered saline (PBS) and the brains were collected. The blood and brain samples were protein precipitated with ice-cold acetonitrile and the concentration of the test compound in the resulting supernatant was quantified using LC/MS/MS. […]
quantity.name: Kp at 2 h

[
  {
    "cpd.smiles": "Fc1ccc2[nH]c(Cn3cncc3-c3ccc[nH]3)cc2c1",
    "result": 5
  }
]

###

- target.desc: human IDO1 (Homo sapiens (Human))
- procedure.text: IDO1 inhibition in HEK293/IDO1 transfected cells
- Format: cell-based
- condition.parameters: HEK293/TRIPZ-IDO1 cells

[
  {
    "cpd.smiles": "Brc1ccc2[nH]c(Cn3cncc3-c3ccc[nH]3)cc2c1",
    "EC50": "470 nM"
  }
]

###

Reported IC50 by item:
- target.desc: human IDO1 (Homo sapiens (Human))
- procedure.text: IDO1 enzymatic inhibition assay
- Assay type: biochemical
- condition.parameters: recombinant human IDO1, 200 μM L-Tryptophan, means N≥3

[
  {
    "compound": "Brc1ccc2[nH]c(-c3cnc[nH]3)cc2c1 [Compound 6, 5-bromo-2-(1H-imidazol-5-yl)-1H-indole]",
    "measurement.units": "µM",
    "IC50": 30
  },
  {
    "compound": "COc1ccc(Cn2cncc2-c2cc3cc(Br)ccc3[nH]2)cc1 [Compound 9d]",
    "measurement.units": "µM",
    "IC50": 21
  },
  {
    "compound": "Fc1ccc2[nH]c(Cn3cncc3-c3ccc[nH]3)cc2c1 [Compound G29]",
    "measurement.units": "µM",
    "IC50": 0.23
  },
  {
    "compound": "Brc1ccc2[nH]c(Cn3cncc3-c3ccc[nH]3)cc2c1 [Compound G28]",
    "measurement.units": "µM",
    "IC50": 0.309
  }
]

###

- procedure.text: Pharmacokinetics studies in mice (plasma and brain concentration)
- Type: in vivo
- condition.parameters: mouse, 20 mg/kg IP, Plasma
quantity.name: half-life (min)

[
  {
    "cpd.smiles": "Brc1ccc2[nH]c(Cn3cncc3-c3ccc[nH]3)cc2c1",
    "result": 49.8
  }
]

###

- procedure.text: Pharmacokinetics studies in mice (plasma and brain concentration)
- Assay type: in vivo
- condition.parameters: mouse, plasma, po, 20 mg/kg, 20 mg/kg PO, 2 Hr, read-out: Plasma concentration Mean

[
  {
    "compound": "Fc1ccc2[nH]c(Cn3cncc3-c3ccc[nH]3)cc2c1 [Compound G29]",
    "measurement.units": "ng/mL",
    "concentration at 2 h": 519
  }
]

###

- procedure.text: Pharmacokinetics studies in mice (plasma and brain concentration)
- Assay type: in vivo
- condition.parameters: mouse, brain/plasma, po, 20 mg/kg, 20 mg/kg PO, 0.5 Hr, individual mouse M2, read-out: B/P Ratio M2
- Method: In order to assess the pharmacokinetics of the IDO1 inhibitors of the present application, two inhibitors were administered to mice at 20 mg/kg via PO (G29), or IP (G28). […] Blood samples were collected via cardiac puncture, the mice were perfused with phosphate buffered saline (PBS) and the brains were collected. The blood and brain samples were protein precipitated with ice-cold acetonitrile and the concentration of the test compound in the resulting supernatant was quantified using LC/MS/MS. […]

[
  {
    "compound": "Fc1ccc2[nH]c(Cn3cncc3-c3ccc[nH]3)cc2c1 [Compound G29]",
    "Kp at 0.5 h": 0.5
  }
]

###

- procedure.text: Pharmacokinetics studies in mice (plasma and brain concentration)
- Assay type: in vivo
- condition.parameters: mouse, brain, ip, 20 mg/kg, 20 mg/kg IP, 0.5 hr, read-out: Tissue Concentration Brain Mean
quantity.name: concentration at 0.5 h

[
  {
    "cpd.smiles": "Brc1ccc2[nH]c(Cn3cncc3-c3ccc[nH]3)cc2c1",
    "quantity.name": "concentration at 0.5 h",
    "result": "4020 ng/g"
  }
]
